- MEASUREMENT PROTOCOL: amyloid nucleation score (Sup35N fusion, yeast selection) (log enrichment); library NNK3; higher = more nucleation; inactive = no reads after selection;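 further: zero at mode of non-aggregating sequences after 7 days selection at 30°C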
MEASURED PARAMETER: amyloid nucleation score

SEQUENCE CONTENT	amyloid nucleation score
FIRGVSYDFIDRSIILFLEV	inactive
VGLWVAYYGRETNRVDNYVT	inactive
ATAPYDTVCRLYCLSWPPRS	inactive
TVKVYTWNY	1.93
GSYLDDRGSGASIATLLVVM	inactive
SKLRYRCSNSHQVIGTPCLD	inactive
HHKMVISVSSRNQSEKRSDW	inactive
IAGCMGNCGLCRAMVICWMN	-0.409

Read the next record carefully.
Q) Respond only with amyloid nucleation score recorded for DVNFWSLYKFCTRVDFGLSY
A) inactive

###

- MEASUREMENT PROTOCOL: amyloid nucleation score (Sup35N fusion, yeast selection) (log enrichment); library NNK3; higher = more nucleation; inactive = no reads after selection
MEASURED PARAMETER: amyloid nucleation score

Sample answers from the record:
SUBSTANCE	amyloid nucleation score
TFFIIIGYVLASGGALGLCR	inactive
KFANYSPRDGTCGTDAHVSD	inactive
SLYFDT	inactive
SPCIVLVQKLCGLGCRFVSV	1.68
IHGKGGLWSHSISIHWNN	inactive
HILWHTSSSGELLPMSP	inactive

Could you report amyloid nucleation score for every entry in the following list?
1. TPHLSCNLRYG
2. SSLVSCYRIFNRSGADLGLT

A)
["inactive", "inactive"]

###

- MEASUREMENT PROTOCOL: amyloid nucleation score (Sup35N fusion, yeast selection) (log enrichment); library NNK3; higher = more nucleation; inactive = no reads after selection
MEASURED PARAMETER: amyloid nucleation score

SUBSTANCE	amyloid nucleation score
DQQCDDVWRRWDGYGRRKKR	inactive
VTLFAMPRNL	inactive
FIRLYDKIRWYNDGNWVWHV	inactive
SWYDVRSVPKSMVAMMGWRL	inactive
IVILPM	inactive
LASQELLFVRIRDSLAKCGV	inactive

Could you report amyloid nucleation score for every entry in the following list?
1. DDECELNMRYNGREYQGTDG
2. CKVHECHVPAG
3. VYNRRYKSNRNIYSHGNRLK
4. TSGHLVLGGYLSNQVKSVFR
5. ELRELFQNCL

A)
inactive
inactive
1.54
0.605
inactive

###

- MEASUREMENT PROTOCOL: amyloid nucleation score (Sup35N fusion, yeast selection) (log enrichment); library NNK2; higher = more nucleation; inactive = no reads after selection
MEASURED PARAMETER: amyloid nucleation score
Give bare numbers.

Could you report amyloid nucleation score for every entry in the following list?
1. VMIIFLDNKRYGKAPNCGRM
2. TLGLHGED
3. SKHFIVTVLTAITSNVSFSM
4. MWSLRYTVGLEDCG
5. DGLFGVTTWNSLFLWILKR

A)
1: 7.26; 2: 0.23; 3: 2.38; 4: 0.897; 5: -1.1

###

- MEASUREMENT PROTOCOL: amyloid nucleation score (Sup35N fusion, yeast selection) (log enrichment); library NNK2; higher = more nucleation; inactive = no reads after selection
MEASURED PARAMETER: amyloid nucleation score
One number for each entry.

SEQUENCE CONTENT	MEASURED PARAMETER	REPORTED RESULT
ISEFHGYSMFKHEARQNGCQ	amyloid nucleation score	5.52
KKEVHLSRVYITETYVVGEG	amyloid nucleation score	-0.052
NGVLRDHWTMAQTCAGVECS	amyloid nucleation score	-0.403

Could you report amyloid nucleation score for every entry in the following list?
1. ISHTLHATITVLLVSNFCLS
2. RNIQYVAMEVCDFKFPVDGV
3. NSMTQFCIQCGGTTIAWSMF
4. MLRHSANMIKMLKHTTTND
5. HSKGHILLTSNSNVFRLGRS
6. FLKSVSVRVGVILQAHAQEV
7. CFRDTFERSFKFLERPNIMH

A)
[0.475, 0.223, 6.66, 0.004, 0.166, 0.375, 1.26]

Could you report amyloid nucleation score for every entry in the following list?
1. DRFMVMFMLKVGVIVWNYGD
2. RKVLLVGCCPLVLKIVFCSV
3. HSRKFADVKSWLTTDKKRIR
4. SGVIEIMFEKSHRLHCCLFC

A)
1: 0.262; 2: 7.73; 3: 0.37; 4: 1.08

###

- MEASUREMENT PROTOCOL: amyloid nucleation score (Sup35N fusion, yeast selection) (log enrichment); library NNK2; higher = more nucleation; inactive = no reads after selection
MEASURED PARAMETER: amyloid nucleation score
Give bare numbers.

Sample answers from the record:
SUBSTANCE	amyloid nucleation score
TFCEWMLWNTLCQVLSVPPY	6.42
RGVLTSSLFPSKGRWVVGHW	2.35
FSPVSPSSGKAHGIGLVLLV	0.083
MKFKPDLVLFRYVHVKVYLE	-1.01
VTGIATTS	0.44
PSRLRYITICRVPGAMSDVN	0.268
IESRVWVGWSDD	-0.044
SVLELYRTSIFYLRLVSNLL	3.52
TGAFPDCLALMYKGAEEVER	0.011
IDWCFGRRENVGGHVRWRNG	1.48

Could you report amyloid nucleation score for every entry in the following list?
1. KSQVPPNFWVVMCLTEFSVV
2. ESYCAC

A)
[5.63, 1.55]

Could you report amyloid nucleation score for every entry in the following list?
1. LLNRSRSL
2. YGAWRFGRLALSRRPSYCGM
3. VKGVWWYRIMS
4. ACLITNRV

A)
[-0.723, -0.271, 0.785, -0.288]

Could you report amyloid nucleation score for every entry in the following list?
1. WWTVKLLMSEVVFRWELEYI
2. SYFHNHWFCLRQFRVDASWC
3. FVCTDCLF
4. HIEVSACTRFLILNIHLRII
5. VGRRSSKYESAELRVGSEVV

A)
5.74
-0.047
-1.35
-1.46
1.71

Could you report amyloid nucleation score for every entry in the following list?
1. IRVNMSVTITRGWICHRLCK
2. LDPNSYHKSRWFNMMSFIRV
3. KLQSCCIF
4. FIYCVTFVDDCRYVINLRGT
5. QQYSADLLRGYPCMSYVPVG
6. VGVLNSIKPYLCVSAKRKCV
7. DADIRQ
8. FLSSIGHLF

A)
1: 0.293; 2: 0.611; 3: 6.23; 4: 7.96; 5: -0.091; 6: 0.09; 7: 0.764; 8: 3.89

Could you report amyloid nucleation score for every entry in the following list?
1. GPFLMSVTLVYLFVFMFERL
2. FYRTSRASAGLS
3. TCICEVHTPTSSMISPSMSF
4. EKGVGL
5. GFFVVISGRMKVYVQGKSWL
6. TIAPGRRYENVNKGCERRFI
7. LCTTNSLF

A)
1. -0.769
2. -0.237
3. -1.51
4. -0.449
5. -0.325
6. -1.76
7. -0.671

Could you report amyloid nucleation score for every entry in the following list?
1. SPLYLTLCMTLQVYGSR
2. CNVTIIYVPYGEWTTFYLRL
3. ILCLFTLSSSKCYGG

A)
[4.04, 7.45, 5.69]

Could you report amyloid nucleation score for every entry in the following list?
1. ALNLIV
2. IRSSSSGNQSQVFSPRDNPP

A)
[-0.572, -0.381]

Could you report amyloid nucleation score for every entry in the following list?
1. FKPLGTTEGIYTPVMYSYRG
2. SDLFVNICCRPNRMGV

A)
1: -0.6; 2: -0.521

###

- MEASUREMENT PROTOCOL: amyloid nucleation score (Sup35N fusion, yeast selection) (log enrichment); library NNK3; higher = more nucleation; inactive = no reads after selection
MEASURED PARAMETER: amyloid nucleation score

SUBSTANCE	MEASURED PARAMETER	REPORTED RESULT
CSFSISSSGVLWRGKERPIG	amyloid nucleation score	1.05
PFGSSTRFIHVFYGAWGHSK	amyloid nucleation score	inactive
SVDVTFSVYHY	amyloid nucleation score	0.702
TVLVTMFKIEEQLTF	amyloid nucleation score	inactive
SCGLLWCD	amyloid nucleation score	-0.43

Could you report amyloid nucleation score for every entry in the following list?
1. DAYNVYMMSSRPAHYQGHYL
2. ARLVYFFLYGLSCRMHCLCW
3. CCAVLFRGVRGMVRCNWNFD

A)
["inactive", "inactive", "inactive"]

###

- MEASUREMENT PROTOCOL: amyloid nucleation score (Sup35N fusion, yeast selection) (log enrichment); library NNK2; higher = more nucleation; inactive = no reads after selection
# binning rule on amyloid nucleation score: lo = under -0.1, med = from -0.1 up to 1, hi = 1 and over

Here's what some known entries look like.
SUBSTANCE	GROUP LABEL
HIIASCTV	hi
CASAVLCCPKTSR	med
MGFIRINWLNSVLRSPPTHR	hi
FGQIRCWYTMICYGQDIGFT	hi
TRSTNVQLDPYFYLW	lo

Q) For this substance, which bin applies? SAFTNRYHLPSERVGHWCPV
A) med

Q) For this substance, which bin applies? MMFILLYKTFCAGEWAGGMY
A) hi

Hello, the source for this data is the supplement of paper PMC12042874, in case you need it.
